// reported log10 of CC50 per item
System: HT-29
test_name: Cytotoxicity against human HT29 cells after 48 hrs by SRB assay
Type: functional, cell-based
condition_context: Homo sapiens, HT-29, 48 h; read-out: LC50 (the source's name)
All values: log10 CC50 [nM].

Quick one: log10 of CC50 of `C/C=C1\NC(=O)[C@H](Cc2ccccc2)NC(=O)[C@@H](C(C)C)NC(=O)[C@@H]([C@H](C)CC)NC(=O)[C@H](NC(=O)[C@H](NC(=O)[C@H](CCCC[N+](C)(C)C)NC(=O)[C@H]2CCCN2C(=O)[C@H](NC(=O)[C@@H](NC(=O)[C@@H](NC(=O)[C@H](NC(=O)CC[C@@H](C)CC)C(C)C)[C@@H](C)O)C(C)C)C(C)C)[C@H](C)CC)[C@H](C)OC(=O)[C@H](C(C)C)NC1=O` ?
2.68

# lookup: log10 of CC50 of `C/C=C1\NC(=O)[C@H](Cc2cccc(Cl)c2)NC(=O)[C@@H](C(C)C)NC(=O)[C@@H]([C@H](C)CC)NC(=O)[C@H](NC(=O)[C@H](NC(=O)[C@H](CCCN)NC(=O)[C@H]2CCCN2C(=O)[C@H](NC(=O)[C@@H](NC(=O)[C@@H](NC(=O)[C@H](NC(=O)CCCC(C)C)C(C)C)[C@@H](C)O)C(C)C)C(C)C)[C@H](C)CC)[C@H](C)OC(=O)[C@H](C(C)C)NC1=O`
2.18

Reported log10 of CC50, molecule `C/C=C1\NC(=O)[C@H](Cc2ccccc2)NC(=O)[C@@H](C(C)C)NC(=O)[C@@H]([C@H](C)CC)NC(=O)[C@H](NC(=O)[C@H](NC(=O)[C@H](CCCN)NC(=O)[C@H]2CCCN2C(=O)[C@H](NC(=O)[C@@H](NC(=O)[C@@H](NC(=O)[C@@H](C)NC(=O)CCCC(C)C)[C@@H](C)O)C(C)C)C(C)C)[C@H](C)CC)[C@H](C)OC(=O)[C@H](C(C)C)NC1=O` : ____
3.52

Requested read-out: log10 of CC50. Entry: `C/C=C1\NC(=O)[C@H](Cc2ccccc2)NC(=O)[C@@H](C(C)C)NC(=O)[C@@H]([C@H](C)CC)NC(=O)[C@H](NC(=O)[C@H](NC(=O)[C@H](CCCNC(=O)CCOCCOCCN)NC(=O)[C@H]2CCCN2C(=O)[C@H](NC(=O)[C@@H](NC(=O)[C@@H](NC(=O)[C@H](NC(=O)CCCC(C)C)C(C)C)[C@@H](C)O)C(C)C)C(C)C)[C@H](C)CC)[C@H](C)OC(=O)[C@H](C(C)C)NC1=O`
2.59

GET /values?readout=log10 of CC50&item= `C/C=C1\NC(=O)[C@H](Cc2ccccc2)NC(=O)[C@@H](C(C)C)NC(=O)[C@@H]([C@H](C)CC)NC(=O)[C@H](NC(=O)[C@H](NC(=O)[C@H](CCCN)NC(=O)[C@H]2CCCN2C(=O)[C@H](NC(=O)[C@@H](NC(=O)[C@@H](NC(=O)[C@@H](CC2CCCCC2)NC(=O)CCCC(C)C)[C@@H](C)O)C(C)C)C(C)C)[C@H](C)CC)[C@H](C)OC(=O)[C@H](C(C)C)NC1=O`
3.42

----------
System: LoVo
test_name: Cytotoxicity against human doxorubicin resistant LoVo cells after 48 hrs by SRB assay
Assay type: functional
Listed here are molecules together with their documented TGI.
Supply the numeric figure in µM, leaving out any unit text.

CC[C@@H]1NC(=O)[C@H](Cc2ccccc2)NC(=O)[C@@H](C(C)C)NC(=O)[C@@H]([C@H](C)CC)NC(=O)[C@H](NC(=O)[C@H](NC(=O)[C@H](CCCN)NC(=O)[C@H]2CCCN2C(=O)[C@H](NC(=O)[C@@H](NC(=O)[C@@H](NC(=O)[C@H](NC(=O)CCCC(C)C)C(C)C)[C@@H](C)O)C(C)C)C(C)C)[C@H](C)CC)[C@H](C)OC(=O)[C@H](C(C)C)NC1=O | 2.82
C/C=C1\NC(=O)[C@H](Cc2ccccc2)NC(=O)[C@@H](C(C)C)NC(=O)[C@@H]([C@H](C)CC)NC(=O)[C@H](NC(=O)[C@H](NC(=O)[C@H](CCCN)NC(=O)[C@H]2CCCN2C(=O)[C@H](NC(=O)[C@@H](NC(=O)[C@@H](NC(=O)[C@H](NC(=O)CC[C@@H](C)CC)C(C)C)[C@@H](C)O)C(C)C)C(C)C)[C@H](C)CC)[C@H](C)OC(=O)[C@H](C(C)C)NC1=O | 0.25

Turning now to a further record.
Can you share its TGI? I mean this molecule: `C/C=C1\NC(=O)[C@H](Cc2ccccc2)NC(=O)[C@@H](C(C)C)NC(=O)[C@@H]([C@H](C)CC)NC(=O)[C@H](NC(=O)[C@H](NC(=O)[C@H](CCCN)NC(=O)[C@H]2CCCN2C(=O)[C@H](NC(=O)[C@@H](NC(=O)[C@@H](NC(=O)CNC(=O)CCCC(C)C)[C@@H](C)O)C(C)C)C(C)C)[C@H](C)CC)[C@H](C)OC(=O)[C@H](C(C)C)NC1=O`
9.1

----------
Tested on: LoVo
test_name: Cytotoxicity against human doxorubicin resistant LoVo cells after 48 hrs by SRB assay
Type: functional
value_type: TGI
Reply with the number, then its unit.

Recorded results for 2 molecules are shown here.
C/C=C1\NC(=O)[C@H](Cc2ccccc2)NC(=O)[C@@H](C(C)C)NC(=O)[C@@H]([C@H](C)CC)NC(=O)[C@H](NC(=O)[C@H](NC(=O)[C@H](CCCN)NC(=O)[C@H]2CCCN2C(=O)[C@H](NC(=O)[C@@H](NC(=O)[C@@H](NC(=O)[C@H](NC(=O)CCCCCC)C(C)C)[C@@H](C)O)C(C)C)C(C)C)[C@H](C)CC)[C@H](C)OC(=O)[C@H](C(C)C)NC1=O | 0.244 µM
C/C=C1\NC(=O)[C@H](Cc2c(F)c(F)c(F)c(F)c2F)NC(=O)[C@@H](C(C)C)NC(=O)[C@@H]([C@H](C)CC)NC(=O)[C@H](NC(=O)[C@H](NC(=O)[C@H](CCCN)NC(=O)[C@H]2CCCN2C(=O)[C@H](NC(=O)[C@@H](NC(=O)[C@@H](NC(=O)[C@H](NC(=O)CC[C@@H](C)CC)C(C)C)[C@@H](C)O)C(C)C)C(C)C)[C@H](C)CC)[C@H](C)OC(=O)[C@H](C(C)C)NC1=O | 0.432 µM

Identify the measured TGI of `C/C=C1\NC(=O)[C@H](Cc2ccccc2)NC(=O)[C@@H](C(C)C)NC(=O)[C@@H]([C@H](C)CC)NC(=O)[C@H](NC(=O)[C@H](NC(=O)[C@H](CCCNC(=O)C(F)(F)F)NC(=O)[C@H]2CCCN2C(=O)[C@H](NC(=O)[C@@H](NC(=O)[C@@H](NC(=O)[C@H](NC(=O)CC[C@@H](C)CC)C(C)C)[C@@H](C)O)C(C)C)C(C)C)[C@H](C)CC)[C@H](C)OC(=O)[C@H](C(C)C)NC1=O` for LoVo.
0.282 µM

----------
Test system: PANC-1
test_name: Cytotoxicity against human PANC1 cells after 48 hrs by SRB assay
Assay type: functional
condition_context: PANC-1, 48 h
Parameter: TGI. Scope: all listed entries.
Note: unit µM is implicit; provide only the numeric part.

Use these answered entries as a reference point.
C/C=C1\NC(=O)[C@H](Cc2ccccc2)NC(=O)[C@@H](C(C)C)NC(=O)[C@@H]([C@H](C)CC)NC(=O)[C@H](NC(=O)[C@H](NC(=O)[C@H](CCCN)NC(=O)[C@H]2CCCN2C(=O)[C@H](NC(=O)CCCCCCCCCCCCC)C(C)C)[C@H](C)CC)[C@H](C)OC(=O)[C@H](C(C)C)NC1=O | 2.4
C/C=C1\NC(=O)[C@H](c2ccccc2)NC(=O)[C@@H](C(C)C)NC(=O)[C@@H]([C@H](C)CC)NC(=O)[C@H](NC(=O)[C@H](NC(=O)[C@H](CCCN)NC(=O)[C@H]2CCCN2C(=O)[C@H](NC(=O)[C@@H](NC(=O)[C@@H](NC(=O)[C@H](NC(=O)CCCC(C)C)C(C)C)[C@@H](C)O)C(C)C)C(C)C)[C@H](C)CC)[C@H](C)OC(=O)[C@H](C(C)C)NC1=O | 1.66

# context switch: different compound, same TGI
Given `C/C=C1\NC(=O)[C@H](Cc2ccccc2)NC(=O)[C@@H](C(C)C)NC(=O)[C@@H]([C@H](C)CC)NC(=O)[C@H](NC(=O)[C@H](NC(=O)[C@H](CCCN)NC(=O)[C@H]2CCCN2C(=O)[C@H](NC(=O)[C@H](CCC2CCCCC2)NC(=O)[C@@H](NC(=O)[C@H](NC(=O)CCCC(C)C)C(C)C)[C@@H](C)O)C(C)C)[C@H](C)CC)[C@H](C)OC(=O)[C@H](C(C)C)NC1=O` , state its recorded TGI.
1.38
